- test_description: Multiple day oral dosing in dogs
- Assay type: in vivo, Beagle dogs
- measurement_conditions: Beagle, plasma, oral; Table 11(a); dog, 0.15 mg/kg/day QD; read-out: Cmin D14, total
readout_type: concentration at 14 day (nM)
Could you give me the number in nM? Just the number is fine.

Challenge: Quote concentration at 14 day reported for C[C@H](Nc1ccc2c(c1)OCCn1cc(N3C(=O)OC[C@H]3C(F)F)nc1-2)C(N)=O [Compound 101] please.
Response given: 12

----------
- test_description: Multiple day oral dosing in dogs
- Type: in vivo, Beagle dogs
- measurement_conditions: Beagle, plasma, oral; Table 11(a); dog, 0.05 mg/kg/day QD; read-out: Cmin D14, total
readout_type: concentration at 14 day (nM)
Could you give me the number in nM? Just the number is fine.

Challenge: Quote concentration at 14 day reported for C[C@H](Nc1ccc2c(c1)OCCn1cc(N3C(=O)OC[C@H]3C(F)F)nc1-2)C(N)=O [Compound 101] please.
Response given: 4.6
